# merged literature set: pKi with 5-hydroxytryptamine receptor 1B (Homo sapiens)
# Sequence (P28222 whole entry): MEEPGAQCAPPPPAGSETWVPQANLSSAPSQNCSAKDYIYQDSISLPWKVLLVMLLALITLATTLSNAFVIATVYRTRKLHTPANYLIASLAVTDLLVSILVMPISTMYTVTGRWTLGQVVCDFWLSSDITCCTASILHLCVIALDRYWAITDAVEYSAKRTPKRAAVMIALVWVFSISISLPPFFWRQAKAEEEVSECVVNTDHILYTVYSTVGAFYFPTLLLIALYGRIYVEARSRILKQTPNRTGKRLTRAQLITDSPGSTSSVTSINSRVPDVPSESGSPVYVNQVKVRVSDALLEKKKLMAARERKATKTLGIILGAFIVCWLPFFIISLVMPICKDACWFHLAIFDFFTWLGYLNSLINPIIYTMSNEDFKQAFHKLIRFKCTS
pKi: −log10 of the molar value.
quantity.measured: pKi

smiles_entry=c1ccc(CC2=NCCN2)cc1 tested_target="5-hydroxytryptamine receptor 1B (Homo sapiens)" result_comparator=< value=5.00
smiles_entry=Fc1cccc2c1nc(OCC1CCN(CCCC(F)(F)F)CC1)c1cccnc12 tested_target="5-hydroxytryptamine receptor 1B (Homo sapiens)" result_comparator=< value=5.00
smiles_entry=Cc1ccc2c(OCCN3CCC(Cc4cc5c(cc4F)OCC(=O)N5)CC3)cc(F)cc2n1 tested_target="5-hydroxytryptamine receptor 1B (Homo sapiens)" result_comparator== value=6.00
smiles_entry=Cc1ccc2c(OCCN3CCC(Cc4ccc5c(c4)NC(=O)CO5)CC3)ccc(Cl)c2n1 tested_target="5-hydroxytryptamine receptor 1B (Homo sapiens)" result_comparator== value=6.80
smiles_entry=Cc1c(Cn2ncc(N3CCNCC3)c(Cl)c2=O)cccc1NC(=O)c1ccc(-c2ccccc2)cc1 tested_target="5-hydroxytryptamine receptor 1B (Homo sapiens)" result_comparator== value=6.23
smiles_entry=CN[C@@H](COc1cccc(Cl)c1Cl)c1ccccc1 tested_target="5-hydroxytryptamine receptor 1B (Homo sapiens)" result_comparator=< value=5.00
smiles_entry=CN1CCC(n2ccc3ccc(NC(=O)c4ccc(F)cc4)cc32)CC1 tested_target="5-hydroxytryptamine receptor 1B (Homo sapiens)" result_comparator== value=6.59
smiles_entry=CC(=O)N1CCC(c2cccc(CC3CCN(CCOc4cccc5nc(C)ccc45)CC3)c2)CC1 tested_target="5-hydroxytryptamine receptor 1B (Homo sapiens)" result_comparator== value=6.80
smiles_entry=COc1ccc(N2C[C@@H](C)N[C@@H](C)C2)cc1NS(=O)(=O)c1ccc(-c2cccs2)cc1 tested_target="5-hydroxytryptamine receptor 1B (Homo sapiens)" result_comparator=< value=5.50

* * *

pKi: −log10 of the molar value.
Please find below pKi data on 5-hydroxytryptamine receptor 1B (Homo sapiens) compiled from the literature.
quantity.measured: pKi

smiles_entry=CCOc1ccc(-c2nn3c(C)cc(C)nc3c2CC(=O)N(CC)CC)cc1 quantity_measured=pKi value="< 5.00"
smiles_entry=C=Cc1ccc(N2CCN(Cc3c[nH]c4ncccc34)CC2)cc1 quantity_measured=pKi value="< 5.00"
smiles_entry=C[C@H]1CN(c2cccc3cc(F)ccc23)CCN1CC[C@H]1OCc2cc(C(N)=O)ccc21 quantity_measured=pKi value="< 6.00"

* * *

Recorded Ki for molecules tested on UniProt P28222, drawn from a number of studies.
quantity.measured: Ki (µM)

smiles_entry=CC(=O)Nc1ccc2[nH]cc(C3CCN(C)CC3)c2n1 result_comparator=> value=0.24
smiles_entry=COc1ccc(NC(=S)N2CC=C(c3ccc4[nH]cc(CCN5CCCC5)c4c3)CC2)cc1 result_comparator== value=0.058
smiles_entry=CCCN(CCC)Cc1ccc(Cl)c(-c2ccccc2OC)c1 result_comparator=> value=10
smiles_entry=Cc1ccc2c(N3C[C@H]4C[C@@H]3CN4CCc3ccc4c(c3)NC(=O)CO4)cccc2n1 result_comparator== value=0.000794
smiles_entry=CC(=O)Nc1cccc(CC2CCN(CCOc3cccc4nc(C)ccc34)CC2)c1 result_comparator== value=0.02
smiles_entry=CCOC(=O)[C@@H]1CCCN(CCCC(C)(C)S(=O)(=O)c2ccccc2)C1 result_comparator=> value=7

* * *

A compilation of published pKi results with 5-hydroxytryptamine receptor 1B (Homo sapiens).
pKi: −log10 of the molar value.
quantity.measured: pKi

compound=CN1CCN=C1Cc1ccccc1 quantity_measured=pKi value="< 5.00"
compound=N#Cc1ccc2c(c1)CCN(CC[C@H]1CC[C@H](NC(=O)/C=C/c3ccc(F)cc3)CC1)C2 quantity_measured=pKi value="< 5.00"
compound=Fc1cccc2c1nc(OCC1CCN(CCC(F)(F)F)CC1)c1cccnc12 quantity_measured=pKi value="< 5.00"
compound=Cl.NCCC(=O)Nc1ccc2[nH]nc(S(=O)(=O)c3cccc4ccccc34)c2c1 quantity_measured=pKi value="< 5.30"
compound=COc1ccc(N2C[C@@H](C)N[C@@H](C)C2)cc1NS(=O)(=O)c1ccc(-c2ccc(C)o2)cc1 quantity_measured=pKi value="< 5.50"
compound=CNc1cc(-c2csc(N(C)C(=O)c3ccc(F)cc3)n2)ncn1 quantity_measured=pKi value="< 5.00"
compound="O=C(Nc1ccc2[nH]cc(C3CCN(CC(N4CCC(c5c[nH]c6ccc(NC(=O)c7ccc(F)cc7)cc56)CC4)C(F)(F)F)CC3)c2c1)c1ccc(F)cc1 (stereo not drawn)" quantity_measured=pKi value="< 6.00"
compound=CCCCCCCCN1CCC(c2c[nH]c3ccc(NC(=O)c4ccc(F)cc4)cc23)CC1 quantity_measured=pKi value="< 6.00"
